Measured values drawn from patent US7928099B2 for this set.

Item-by-item account of Emax
Biological target: human recombinant 5-HT2c receptor (Homo sapiens, UniProt P28335)
Construct: expressed in transfected cells; host or cells: CHO K1 (Chinese hamster ovary), stably transfected
Sequence (P28335 33-458): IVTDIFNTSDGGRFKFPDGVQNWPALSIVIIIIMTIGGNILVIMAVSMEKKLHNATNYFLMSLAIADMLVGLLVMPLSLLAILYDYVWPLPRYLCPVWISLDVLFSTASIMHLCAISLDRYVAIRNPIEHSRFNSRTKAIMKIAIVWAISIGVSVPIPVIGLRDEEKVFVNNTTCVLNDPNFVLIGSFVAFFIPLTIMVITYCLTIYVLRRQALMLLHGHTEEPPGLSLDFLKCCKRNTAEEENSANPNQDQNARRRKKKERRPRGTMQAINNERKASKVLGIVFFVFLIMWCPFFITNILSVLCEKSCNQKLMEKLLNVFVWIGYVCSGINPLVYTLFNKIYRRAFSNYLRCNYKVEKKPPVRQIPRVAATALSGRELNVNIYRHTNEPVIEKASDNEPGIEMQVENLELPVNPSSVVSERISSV
Assay: FLIPR fluorescent Ca2+ mobilisation agonist assay in CHO K1 cells (Method 1)
Assay type: cell-based
Settings: CHO-K1, efficacy, percentage of mean maximal response to 10 μM 5-HT
Counter-ions that a name gives are not always drawn.

{"compound": "CCN(C)c1nc(N2CCOCC2)nc2c1CCNCC2", "measuredOn": "human recombinant 5-HT2c receptor (Homo sapiens, UniProt P28335)", "readoutUnit": "%", "Emax": 88.4}
{"compound": "CC(C)[C@@H](CO)Nc1nc(Cc2ccccc2)nc2c1CCNCC2 [Example 24, hydrochloride]", "measuredOn": "human recombinant 5-HT2c receptor (Homo sapiens, UniProt P28335)", "readoutUnit": "%", "Emax": 69.9}
{"compound": "CCN(C)c1nc2c(c(NCC(C)C)n1)CCNCC2", "measuredOn": "human recombinant 5-HT2c receptor (Homo sapiens, UniProt P28335)", "readoutUnit": "%", "Emax": 49.9}
{"compound": "c1ccc(Cc2nc3c(c(C4CC4)n2)CCNCC3)cc1", "measuredOn": "human recombinant 5-HT2c receptor (Homo sapiens, UniProt P28335)", "readoutUnit": "%", "Emax": 49.6}
{"compound": "CCN(C)c1nc2c(c(NC)n1)CCNCC2", "measuredOn": "human recombinant 5-HT2c receptor (Homo sapiens, UniProt P28335)", "readoutUnit": "%", "Emax": 74.3}
{"compound": "OCC1CCN(c2nc(Cc3ccccc3)nc3c2CCNCC3)C1 (stereo not shown) [Example 42, hydrochloride]", "measuredOn": "human recombinant 5-HT2c receptor (Homo sapiens, UniProt P28335)", "readoutUnit": "%", "Emax": 75.4}
{"compound": "CCNc1nc(N(C)CC)nc2c1CCNCC2", "measuredOn": "human recombinant 5-HT2c receptor (Homo sapiens, UniProt P28335)", "readoutUnit": "%", "Emax": 61.7}
{"compound": "FC(F)(F)c1cccc(Cc2ncc3c(n2)CCNCC3)c1", "measuredOn": "human recombinant 5-HT2c receptor (Homo sapiens, UniProt P28335)", "readoutUnit": "%", "Emax": 44.1}
{"compound": "CCc1nc(Cc2ccccc2)nc2c1CCNCC2", "measuredOn": "human recombinant 5-HT2c receptor (Homo sapiens, UniProt P28335)", "readoutUnit": "%", "Emax": 71.6}
{"compound": "CN1CCC[C@H]1COc1nc(Cc2ccccc2)nc2c1CCNCC2", "measuredOn": "human recombinant 5-HT2c receptor (Homo sapiens, UniProt P28335)", "readoutUnit": "%", "Emax": 69.5}
